All values here come from PubChem BioAssay (NCI).

I'd be grateful if you could share measured growth for these entries.
# System: COLO 205 colon
# methodDescription: NCI-60 one-dose screen, 48 h (100 = growth as untreated, 0 = no growth, -100 = all killed)
# conditionSummary: 10 µM
The panel holds about 83,000 compounds, 20% with a hit somewhere; the sample as a whole holds those more often.
One number for each entry, in %.

The following compounds have reported results that may help.
compound: C[C@@H](c1ccccc1)[C@@H](C(=O)O)c1ccccc1
readoutUnits: %
valueObserved: 107
//
compound: O=C(N/N=C\c1cc(Br)cc(Br)c1O)N/N=C/c1cc(Br)cc(Br)c1O
readoutUnits: %
valueObserved: 62.1
//
compound: c1csc(-c2cc(-c3cc(-c4cccs4)[nH]n3)n[nH]2)c1
readoutUnits: %
valueObserved: 114
//
compound: O=C(Nc1ccccc1)OCCc1ccccc1
readoutUnits: %
valueObserved: 119
//
compound: CC(=O)OCC1OC(OC2=C(CC=C(C)C)C(=O)c3ccccc3C2=O)C(OC(C)=O)C(OC(C)=O)C1OC(C)=O (configuration not stated)
readoutUnits: %
valueObserved: 66
//
compound: CC(O)COc1ccc(-c2ccccc2)cc1 (configuration not stated)
readoutUnits: %
valueObserved: 110
//
compound: CCn1c(=O)n(C)c2c(=O)n(C)c(=O)n(C)c21
readoutUnits: %
valueObserved: 101
//
compound: N#Cc1c(N)sc(=S)c2c1CCCC2
readoutUnits: %
valueObserved: 111

Please state growth for every compound in the list that follows.
1. Cc1ccccc1C1N=C2Oc3ccccc3C=C2C(=O)N1 (configuration not stated)
2. Nc1nc2c(c(-c3nc(N)nc4c3CCc3ccccc3-4)n1)CCc1ccccc1-2
3. COc1cc(C(=O)NC(=S)Nc2ccc3ccccc3c2)cc(OC)c1OC
4. COCCOC(=O)c1ccc(C(C)C)cc1

Out:
1: 0.577; 2: 116; 3: 84.2; 4: 104

* * *

# Tested on: T-47D breast
# methodDescription: NCI-60 one-dose screen, 48 h (100 = growth as untreated, 0 = no growth, -100 = all killed)
# conditionSummary: 10 µM
About 83,000 compounds went through this panel and 20% of them were active in at least one assay; those are over-represented in the sample as a whole.
observedProperty: growth (%)
Numbers only, in %.

molecule: CC(CN1CCCCC1)NC(=O)c1scnc1-c1ccccc1 (stereo not drawn)
assayedSystem: T-47D breast
readoutUnits: %
growth: 98.7
//
molecule: CCOC(=O)CCCC(=O)OCC
assayedSystem: T-47D breast
readoutUnits: %
growth: 96.4
//
molecule: Cc1ccc(Cl)cc1NC(=O)N(C)CCO
assayedSystem: T-47D breast
readoutUnits: %
growth: 104

Please state growth for every molecule in the list that follows.
1. Oc1ccc(Cc2ccccc2)c2cccnc12
2. Cc1ccc(N)cc1[N+](=O)[O-]
3. COc1ccc(/C(C#N)=C2C=C/C(=N/O)c3ccccc3\2)cc1
4. Cc1ccc(C(=O)NC2c3ccccc3Oc3ccccc32)cc1
5. N=c1c(C(=O)OCc2ccccc2)ncc(CCl)n1O
6. C#Cc1cccc(NC(=O)c2ccc(Cl)cc2Cl)c1
7. O=S(=O)(O)c1cc(O)c2c(N=Cc3ccccc3O)c(S(=O)(=O)O)ccc2c1

Out:
25.3
107
64.8
60.5
93.9
95.2
106

Please state growth for every molecule in the list that follows.
1. O=C(NN=C1CCCCC1)C(=O)NN=C1CCCCC1
2. CNc1nc(NC)c2cn[nH]c2n1
3. CC1CC(O)CC(C)(C)C1 (stereo not drawn)

Out:
1. 99.7
2. 101
3. 104

* * *

# Tested on: LOX IMVI melanoma
# methodDescription: NCI-60 one-dose screen, 48 h (100 = growth as untreated, 0 = no growth, -100 = all killed)
# conditionSummary: 10 µM
The panel holds about 83,000 compounds, 20% with a hit somewhere; the sample as a whole holds those more often.
observedProperty: growth (%)
Give bare numbers, in %.

The following compounds have reported results that may help.
compound: Nc1ncnc2[nH]ncc12
observedProperty: growth
valueObserved: 1.37
//
compound: C/C(O)=C(\C=N\C(N)=S)C(=O)Nc1ccccc1
observedProperty: growth
valueObserved: 96.7
//
compound: OCc1cccc2ccccc12
observedProperty: growth
valueObserved: 102
//
compound: C/C(=N\NC(=O)c1ccccc1N)c1ccccc1O
observedProperty: growth
valueObserved: 36.7
//
compound: N#CSc1cc(S(N)(=O)=O)ccc1N
observedProperty: growth
valueObserved: 99.9

Please state growth for every compound in the list that follows.
1. CCOC(=O)c1[nH]c(C)c(C(=O)O)c1C
2. N#Cc1c(N)sc(=S)c2c1CCCC2

Out:
[106, 99.4]

Please state growth for every compound in the list that follows.
1. COc1cc(C(N)=O)cc(OC)c1OC
2. NC(=S)CN1CCOCC1
3. CCOC(=O)c1[nH]c(C)c(C(C)=O)c1C

Out:
1. 104
2. 104
3. 82.2

Please state growth for every compound in the list that follows.
1. NC(C(=O)O)c1ccc([N+](=O)[O-])cc1 (stereo not drawn)
2. CCCCCCCCCCC1CO1 (stereo not drawn)
3. Cc1cc(/C=C/c2ccc3cc(N(C)C)ccc3[n+]2C)c(C)n1-c1ccccc1
4. O=[N+]([O-])c1ccc(CO)cc1

Out:
1. 101
2. 102
3. -38
4. 99.2

Please state growth for every compound in the list that follows.
1. Cc1c(C(=O)O)c(=O)n(-c2ccccc2)n1C
2. O=C(O)CCC(=O)OC(C1CO1)C(OC(=O)CCC(=O)O)C1CO1 (stereo not drawn)
3. c1c(-c2cc(C3CC3)[nH]n2)n[nH]c1C1CC1
4. Cc1cccc(C(=O)N(C(C)C)C(C)C)c1
5. O=[N+]([O-])c1cccc(N=Nc2ccc(O)cc2O)c1
6. Cc1ccc(S(=O)(=O)O)c(C)c1
7. CC1SC(N)=NC1=O (stereo not drawn)

Out:
1. 99.5
2. 97.1
3. 77.8
4. 96.1
5. 81.1
6. 95.3
7. 104

* * *

# Tested on: HCT-116 colon
# methodDescription: NCI-60 one-dose screen, 48 h
# conditionSummary: 10 µM
Compounds without any hit were thinned out: in the full panel of roughly 83,000, 20% have a hit. The source made the active and inactive calls. Rule for the calls: active = growth percent below 10; inactive = the rest.
Write down one outcome, taken from active, inactive

Solved cases below.
compound: CCCCCCCCCCCCCC(=O)Oc1ccc[nH]c1=O
assignedCategory: inactive
--
compound: CN(c1ccccc1)c1ncnc2c1ncn2C
assignedCategory: inactive
--
compound: COc1ccccc1NC(=O)C1=C(C)NC(C)=C(C(=O)Nc2ccccc2OC)C1c1cccc([N+](=O)[O-])c1
assignedCategory: inactive
--
compound: Oc1ccc(N=Nc2ccc(Br)cc2)c(O)c1
assignedCategory: inactive
--
compound: COC(=O)c1ccccc1N(C)C
assignedCategory: inactive
--
compound: COc1cc2c3c(n(C)c(=O)c2cc1OC)-c1cc2c(cc1C3=O)OCO2
assignedCategory: inactive
--
compound: COc1cc(C2c3cc4c(cc3C3OC(=O)C2C3CO)OCO4)cc(OC)c1OC (stereo not given)
assignedCategory: active
--
compound: CC1(C(N)=O)CCC(C(=O)O)C1(C)C (stereo not given)
assignedCategory: inactive

In: Outcome logged for "O=c1[nH][nH]c(=O)c2cc([N+](=O)[O-])ccc12" in this assay:
Out: inactive

In: Outcome logged for "Cc1ccc(C)n1-c1ccsc1C(=O)NNC(=O)C(Cl)Cl" in this assay:
Out: inactive

In: Outcome logged for "COCCOC(=O)c1ccc(C(C)C)cc1" in this assay:
Out: inactive

In: Outcome logged for "Cc1cc(C)c(N)c(S(=O)(=O)O)c1" in this assay:
Out: inactive

In: Outcome logged for "O=[N+]([O-])c1ccc(S(=O)(=O)NN=C2CCCCC2)cc1" in this assay:
Out: inactive

In: Outcome logged for "COC(=O)c1[nH]c(=O)c(C#N)c(C(=O)OC)c1C(=O)c1ccccc1" in this assay:
Out: inactive

* * *

I'd be grateful if you could share measured growth for these entries.
# Test system: HCT-15 colon
# methodDescription: NCI-60 one-dose screen, 48 h (100 = growth as untreated, 0 = no growth, -100 = all killed)
# conditionSummary: 10 µM
This is part of a sample that, as a whole, favours compounds with a hit. Of some 83,000 tested, about 20% had one in any assay.
Give bare numbers, in %.

compound: O=[N+]([O-])c1ccc(-c2ncc(-c3ccc(Br)cc3)o2)cc1
readoutUnits: %
growth: 96.5

Please state growth for every compound in the list that follows.
1. COc1cc(C(N)=O)cc(OC)c1OC
2. CCCCC(CC)COC(C)=O (stereo not drawn)
3. CCOC(=O)C1OC1c1ccccc1 (stereo not drawn)
4. COC(=O)c1cccnc1
5. NC(=O)N/N=C\c1ccco1
6. CC1(C)N=C(N)N=C(N)N1c1cccc(Br)c1
7. N#Cc1ccc(NC(=O)Nc2cccc(C#N)c2)cc1

Out:
101
109
103
103
107
32.4
67.4
